# target system: HLA-A*68:02
# assay info: IEDB peptide-MHC binding, purified MHC/competitive/radioactivity; bounds were set here for any values at or beyond the usual limits of such assays
# conditions: source organism: Influenza A virus
Please respond with t when measured IC50 is strictly beneath 0.9 µM, and with f in all other cases.

// known answers, use as guide
residue codes: NVTVTHSV
classification: f

residue codes: FNMLSTVLGV
classification: t

residue codes: TVSSFQDIL
classification: t

Would you kindly verify if IC50 of `GILGFVFTLT` is strictly less than 0.9 µM?
t

Identify whether the sequence `IVSSYVCSGL` records IC50 below 0.9 µM.
t

Hello, is IC50 of the following sequence strictly smaller than 0.9 µM? `TVQIIKLL`
f

----------
# target system: HLA-A*68:02
# assay info: IEDB peptide-MHC binding, cellular MHC/competitive/fluorescence; bounds were set here for any values at or beyond the usual limits of such assays
# conditions: source organism: Vaccinia virus WR
pIC50: −log10 of the molar value.
Outcome: MET for pIC50 of at least 5; NOT MET for anything lower.

Consider the following illustrative entries.
residue codes: LVDKEDTDIV
classification: NOT MET

residue codes: MIGNYFSGVL
classification: MET

residue codes: FAFIDFSKST
classification: MET

residue codes: AARLKRSAT
classification: NOT MET

Hi, just wondering whether `SMYVIPDEL` shows pIC50 of 5 or higher.
MET

Does pIC50 meet or surpass 5 for `FANVISKIYT` ?
MET

Is it the case that `RLFTRCAVI` has pIC50 reaching or exceeding 5?
MET

Dear colleague, could you confirm whether `LIISTDQDT` has pIC50 at or above 5?
NOT MET

Confirm if pIC50 reported for the sequence `KQNKFGDSPL` is 5 or above.
NOT MET

----------
# target system: HLA-A*02:01
# assay info: IEDB peptide-MHC binding, cellular MHC/competitive/fluorescence; bounds were set here for any values at or beyond the usual limits of such assays
# conditions: source organism: Vaccinia virus WR
attribute measured: pIC50
Formally, pIC50 is defined as -log10 of the concentration c, with c in mol/L.

residue codes: IVQLPKRGV
attribute measured: pIC50
measured: 4.82
--
residue codes: NIHNHMIKV
attribute measured: pIC50
measured: 5.19

Sample `KLIIDREVVA` — what was its pIC50?
4.80

Requested field: pIC50. Item: `TAEQLSKYV`
4.27

Query: pIC50; subject: `MVISLLSMIT`
5.01

----------
Entries and their pIC50 values follow.
# target system: HLA-A*02:02
# assay info: IEDB peptide-MHC binding, cellular MHC/competitive/fluorescence; bounds were set here for any values at or beyond the usual limits of such assays
# conditions: source organism: Vaccinia virus WR
# pIC50 = -log10(concentration in molar units)

Illustrative cases are given below, each with its answer.
residue codes: CTIVDSMII
measured: 4.86

residue codes: SASDMQKFTI
measured: 4.97

residue codes: EISSNDNAKI
measured: 4.95

residue codes: TTNNLLEQLI
measured: 5.05

For `TQVKELGIA` , what is its reported pIC50?
5.14

Value lookup for pIC50; key = `VVECLTVPNI`
5.07

Endpoint output: pIC50 of `HTNHSDISM` . Value?
5.05

Would you mind telling me what pIC50 value was observed for `IIYSKAGNI` ?
5.01
